Biological target: EGFR-TK (Homo sapiens, UniProt P00533)
Sequence (P00533 25-1210): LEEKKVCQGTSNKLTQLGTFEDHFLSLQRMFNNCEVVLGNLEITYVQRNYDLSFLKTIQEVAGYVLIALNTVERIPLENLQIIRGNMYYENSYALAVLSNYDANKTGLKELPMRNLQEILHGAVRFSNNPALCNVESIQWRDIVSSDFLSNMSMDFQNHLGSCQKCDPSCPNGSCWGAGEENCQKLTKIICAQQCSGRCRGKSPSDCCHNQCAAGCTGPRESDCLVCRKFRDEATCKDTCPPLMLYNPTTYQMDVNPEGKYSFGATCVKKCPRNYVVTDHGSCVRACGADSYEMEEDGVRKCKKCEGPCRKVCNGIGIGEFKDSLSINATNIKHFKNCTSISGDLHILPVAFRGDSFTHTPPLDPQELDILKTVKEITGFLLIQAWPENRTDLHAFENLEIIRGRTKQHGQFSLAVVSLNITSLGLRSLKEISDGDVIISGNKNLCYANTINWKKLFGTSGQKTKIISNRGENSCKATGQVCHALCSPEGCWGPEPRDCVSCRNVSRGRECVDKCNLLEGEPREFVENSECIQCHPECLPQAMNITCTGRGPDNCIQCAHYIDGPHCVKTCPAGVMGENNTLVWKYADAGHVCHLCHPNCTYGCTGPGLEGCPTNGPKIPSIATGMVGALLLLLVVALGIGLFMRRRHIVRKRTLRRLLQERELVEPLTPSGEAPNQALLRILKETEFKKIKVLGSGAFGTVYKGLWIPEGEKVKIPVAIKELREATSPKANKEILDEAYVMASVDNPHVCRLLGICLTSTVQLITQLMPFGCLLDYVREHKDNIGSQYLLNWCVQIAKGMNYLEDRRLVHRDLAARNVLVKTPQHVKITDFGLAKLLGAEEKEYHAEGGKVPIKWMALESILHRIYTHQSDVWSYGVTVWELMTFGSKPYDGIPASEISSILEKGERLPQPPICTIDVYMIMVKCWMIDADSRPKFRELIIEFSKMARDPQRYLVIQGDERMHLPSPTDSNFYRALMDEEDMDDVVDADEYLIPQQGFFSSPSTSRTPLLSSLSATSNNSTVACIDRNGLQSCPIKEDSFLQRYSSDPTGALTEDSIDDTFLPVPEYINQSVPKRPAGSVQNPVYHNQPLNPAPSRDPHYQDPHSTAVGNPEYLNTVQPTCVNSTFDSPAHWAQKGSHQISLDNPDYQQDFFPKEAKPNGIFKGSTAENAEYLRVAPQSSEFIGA
Experiment: EGFR-TK enzyme assay
Type: biochemical
recorded_metric: pIC50
FYI, pIC50 means -log10 of a concentration in mol per litre.

**Query** State its pIC50: O=C1/C(=C/c2ccc(F)cc2)N=C(c2ccccc2)N1c1ccc(S(=O)(=O)Nc2ncccn2)cc1 [compound 6]
**Result** 6.89
